# system: GST-PLK2 (Homo sapiens, UniProt Q9NYY3)
# Construct: purchased CarnaBio
# Sequence (Q9NYY3 whole entry): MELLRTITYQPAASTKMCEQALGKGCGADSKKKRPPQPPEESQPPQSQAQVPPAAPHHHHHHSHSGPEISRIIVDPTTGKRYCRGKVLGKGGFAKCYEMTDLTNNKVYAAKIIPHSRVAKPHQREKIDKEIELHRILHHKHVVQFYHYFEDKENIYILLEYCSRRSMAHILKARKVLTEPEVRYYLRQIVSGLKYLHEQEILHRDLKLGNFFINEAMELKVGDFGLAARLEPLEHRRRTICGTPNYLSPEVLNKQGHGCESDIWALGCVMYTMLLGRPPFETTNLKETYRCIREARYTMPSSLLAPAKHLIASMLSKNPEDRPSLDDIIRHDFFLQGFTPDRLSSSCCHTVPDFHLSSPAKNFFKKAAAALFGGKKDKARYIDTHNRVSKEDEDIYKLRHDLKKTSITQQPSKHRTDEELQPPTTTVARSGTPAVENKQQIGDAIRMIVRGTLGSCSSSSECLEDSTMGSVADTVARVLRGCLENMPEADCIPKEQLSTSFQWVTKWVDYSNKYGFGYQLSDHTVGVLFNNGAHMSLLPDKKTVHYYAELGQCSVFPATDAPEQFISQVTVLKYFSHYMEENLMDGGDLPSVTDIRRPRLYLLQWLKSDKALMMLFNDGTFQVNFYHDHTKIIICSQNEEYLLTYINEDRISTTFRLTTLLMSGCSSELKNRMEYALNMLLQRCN
# assay overview: PLK TR-FRET peptide assay, PLK2
# Assay type: biochemical
# settings: PLK TR-FRET peptide assay, GST-PLK2; read-out: Plk2 IC50
endpoint name: IC50

Field: example entries. Status: answers known.
[[record]]
compound = "CC[C@@H]1C(=O)N(C)c2cnc(-n3cnc(C(=O)O)c3)nc2N1C1CCCC1"
endpoint_name = "IC50"
measured = "< 1 µM"

[[record]]
compound = "CC[C@@H]1C(=O)N(C)c2cnc(-c3cnncc3-c3ccccc3)nc2N1C1CCCC1"
endpoint_name = "IC50"
measured = "< 1 µM"

[[record]]
compound = "CC[C@@H]1C(=O)N(C)c2cnc(-c3cc[n+]([O-])cc3)nc2N1C1CCCC1"
endpoint_name = "IC50"
measured = "1 to 10 µM"

[[record]]
compound = "CC[C@@]12CCCN1c1nc(-n3ccnc3-c3cccnc3)ncc1N(C)C2=O"
endpoint_name = "IC50"
measured = "1 to 10 µM"

[[record]]
compound = "CCC1C(=O)N(C)c2cnc(-n3ccnc3-c3ccc(F)cc3)nc2N1c1cnn(COCC[Si](C)(C)C)c1 (stereo not shown)"
endpoint_name = "IC50"
measured = "< 1 µM"


Could you tell me IC50 for each of these compounds? They are listed below.
1. CC[C@@H]1C(=O)N(C)c2cnc(-n3cnc(-c4cccnc4)c3)nc2N1C1CCCC1
2. CC[C@@H]1C(=O)N(C)c2cnc(-n3ccnc3-c3cncnc3)nc2N1C1CCCC1
3. CC[C@]12COCCN1c1nc(-c3cnoc3-c3ccccc3)ncc1N(C)C2=O

Result block:
1: < 1 µM; 2: < 1 µM; 3: > 50 µM

Could you tell me IC50 for each of these compounds? They are listed below.
1. CC[C@@H]1C(=O)N(C)c2cnc(-c3cnsc3-c3ccc(F)cc3)nc2N1C(C)C
2. CC[C@@H]1C(=O)N(C)c2cnc(-n3ccnc3-c3ccncc3)nc2N1C1CCOCC1
3. CC[C@@H]1C(=O)N(C)c2cnc(-n3ccnc3-c3ccncc3)nc2N1C1CC1
4. CN1C(=O)C23CCC(CC2)N3c2nc(-n3ccnc3-c3ccccc3)ncc21

Result block:
< 1 µM
< 1 µM
1 to 10 µM
1 to 10 µM

Could you tell me IC50 for each of these compounds? They are listed below.
1. CC[C@@H]1C(=O)N(C)c2cnc(-c3ccnc(O)c3)nc2N1C1CCCC1
2. CC[C@@H]1C(=O)N(C)c2cnc(-n3ccnc3N3CCOC3=O)nc2N1C1CCCC1

Result block:
1: < 1 µM; 2: < 1 µM

Could you tell me IC50 for each of these compounds? They are listed below.
1. CC[C@@]12COCCN1c1nc(-c3cn[nH]c3-c3ccc(F)cc3F)ncc1N(C)C2=O
2. CC[C@@H]1C(=O)N(C)c2cnc(-n3cnc(C(N)=O)c3)nc2N1C1CCCC1
3. CC[C@@H]1C(=O)N(C)c2cnc(-n3ccnc3)nc2N1C1CCC1
4. CCC1C(=O)N(C)c2cnc(-c3cn[nH]c3-c3nccs3)nc2N1c1cnn(CC2CC2)c1 (stereo not shown)

Result block:
1: < 1 µM; 2: < 1 µM; 3: < 1 µM; 4: < 1 µM

Query block: Can you look up the measured IC50 of CC[C@@H]1C(=O)N(C)c2cnc(-n3ccnc3-c3nccs3)nc2N1C1CCOC1 (stereo partly shown) for me?
Result block: < 1 µM
